- Test system: SW1271 complex spheroids with HUVEC/MSC, growth, % test/control
- procedure summary: Anticancer human tumor SW1271 cell line growth inhibition [AhR]; active = viability on the fitted dose curve at most 10% of control; inactive = the rest;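 also: spheroids exposed to agents for 7 days before readout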
- measurement conditions: second compound 1 µM; first compound 0.0949 µM
// one of active, inactive, no free text

Qu. In this assay, the call recorded for CCc1c2c(nc3ccc(O)cc13)-c1cc3c(c(=O)n1C2)COC(=O)[C@]3(O)CC + Cc1ccccc1N=Nc1ccc(NC(=O)c2ccnn2C)c(C)c1 was what?
Ans. inactive

Qu. In this assay, the call recorded for Nc1ncn(C2CC(O)C(CO)S2)c(=O)n1 (configuration not stated) + Cc1cncc(-c2nc(NCCc3c[nH]c4ccccc34)c3ncn(C(C)C)c3n2)c1 was what?
Ans. inactive

Qu. In this assay, the call recorded for CCN(c1cc(-c2ccc(CN3CCOCC3)cc2)cc(C(=O)NCc2c(C)cc(C)[nH]c2=O)c1C)C1CCOCC1 + CC(CO)NC(=O)c1cc(-c2ccc(Cl)cc2)nn(-c2cnn(C)c2)c1=O was what?
Ans. inactive

====

- System: SW1271 complex spheroids with HUVEC/MSC, growth, % test/control
- procedure summary: Anticancer human tumor SW1271 cell line growth inhibition [AhR];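 also: spheroids exposed to agents for 7 days before readout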
- measurement conditions: second compound 3.16 µM; first compound 1 µM; active compounds read low
Listing of entries alongside the reported viability, T/C.
Please reply with the bare figure in % and do not write the unit itself.

>  <compound>
O=C(c1cc(Cc2n[nH]c(=O)c3ccccc23)ccc1F)N1CCN(C(=O)C2CC2)CC1 + Cc1cncc(-c2nc(NCCc3c[nH]c4ccccc34)c3ncn(C(C)C)c3n2)c1

>  <target of assay>
SW1271 complex spheroids with HUVEC/MSC, growth, % test/control

>  <measurement unit>
%

>  <viability, T/C>
75.6

$$$$
>  <compound>
NS(=O)(=O)OCC1CC(n2ccc3c(NC4CCc5ccccc54)ncnc32)CC1O (stereo unspecified) + Cc1cncc(-c2nc(NCCc3c[nH]c4ccccc34)c3ncn(C(C)C)c3n2)c1

>  <target of assay>
SW1271 complex spheroids with HUVEC/MSC, growth, % test/control

>  <measurement unit>
%

>  <viability, T/C>
71.2

$$$$
>  <compound>
Nc1ccn(C2OC(CO)C(O)C2(F)F)c(=O)n1 (stereo unspecified) + Cc1cncc(-c2nc(NCCc3c[nH]c4ccccc34)c3ncn(C(C)C)c3n2)c1

>  <target of assay>
SW1271 complex spheroids with HUVEC/MSC, growth, % test/control

>  <measurement unit>
%

>  <viability, T/C>
65

$$$$
>  <compound>
COc1cc(Nc2ncc3c(n2)-c2ccc(Cl)cc2C(c2c(F)cccc2OC)=NC3)ccc1C(=O)O + Cc1cncc(-c2nc(NCCc3c[nH]c4ccccc34)c3ncn(C(C)C)c3n2)c1

>  <target of assay>
SW1271 complex spheroids with HUVEC/MSC, growth, % test/control

>  <measurement unit>
%

>  <viability, T/C>
102

$$$$
>  <compound>
Nc1ncn(C2CC(O)C(CO)O2)c(=O)n1 (stereo unspecified) + Cc1cncc(-c2nc(NCCc3c[nH]c4ccccc34)c3ncn(C(C)C)c3n2)c1

>  <target of assay>
SW1271 complex spheroids with HUVEC/MSC, growth, % test/control

>  <measurement unit>
%

>  <viability, T/C>
110

$$$$

Qu. # value lookup — system SW1271 complex spheroids with HUVEC/MSC, growth, % test/control, readout viability, T/C, item Nc1ccn(C2OC(CO)C(O)C2(F)F)c(=O)n1 (stereo unspecified) + CC(CO)NC(=O)c1cc(-c2ccc(Cl)cc2)nn(-c2cnn(C)c2)c1=O
Ans. 59.4

====

Listing of entries alongside the reported viability, T/C.
- System: SW1271 complex spheroids with HUVEC/MSC, growth, % test/control
- procedure summary: Anticancer human tumor SW1271 cell line growth inhibition [AhR];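 also: spheroids exposed to agents for 7 days before readout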
- measurement conditions: second compound 3.16 µM; first compound 1 µM; active compounds read low
Please reply with the bare figure in % and do not write the unit itself.

Sample records with viability, T/C:
>  <compound>
CC(C)c1c(-c2ccccc2)nc2c(C#N)c[nH]n2c1=O + CC(CO)NC(=O)c1cc(-c2ccc(Cl)cc2)nn(-c2cnn(C)c2)c1=O

>  <target of assay>
SW1271 complex spheroids with HUVEC/MSC, growth, % test/control

>  <measurement unit>
%

>  <viability, T/C>
78

$$$$
>  <compound>
O=C(C=Cc1cccc(S(=O)(=O)Nc2ccccc2)c1)NO + Cc1ccccc1N=Nc1ccc(NC(=O)c2ccnn2C)c(C)c1

>  <target of assay>
SW1271 complex spheroids with HUVEC/MSC, growth, % test/control

>  <measurement unit>
%

>  <viability, T/C>
57.5

$$$$

Qu. Can you share its viability, T/C? I mean this compound: O=C(c1cc(Cc2n[nH]c(=O)c3ccccc23)ccc1F)N1CCN(C(=O)C2CC2)CC1 + Cc1ccccc1N=Nc1ccc(NC(=O)c2ccnn2C)c(C)c1
Ans. 81.9

Qu. Can you share its viability, T/C? I mean this compound: CC1COCCN1c1cc(-c2ccnn2C)c2ccnc(-c3ccn[nH]3)c2n1 (configuration not stated) + CC(CO)NC(=O)c1cc(-c2ccc(Cl)cc2)nn(-c2cnn(C)c2)c1=O
Ans. 45.6

Qu. Can you share its viability, T/C? I mean this compound: COc1cc(Nc2ncc3c(n2)-c2ccc(Cl)cc2C(c2c(F)cccc2OC)=NC3)ccc1C(=O)O + Cc1ccccc1N=Nc1ccc(NC(=O)c2ccnn2C)c(C)c1
Ans. 57.9

Qu. Can you share its viability, T/C? I mean this compound: Nc1ccccc1NC(=O)c1ccc(CNC(=O)OCc2cccnc2)cc1 + CC(CO)NC(=O)c1cc(-c2ccc(Cl)cc2)nn(-c2cnn(C)c2)c1=O
Ans. 44.9

Qu. Can you share its viability, T/C? I mean this compound: CC(C)c1c(-c2ccccc2)nc2c(C#N)c[nH]n2c1=O + Cc1ccccc1N=Nc1ccc(NC(=O)c2ccnn2C)c(C)c1
Ans. 109

====

- Test system: SW1271 complex spheroids with HUVEC/MSC, growth, % test/control
- procedure summary: Anticancer human tumor SW1271 cell line growth inhibition [AhR];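 also: spheroids exposed to agents for 7 days before readout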
- measurement conditions: second compound 0.316 µM; first compound 1 µM; active compounds read low
test readout: viability, T/C (%)
Please reply with the bare figure in % and do not write the unit itself.

Sample records with viability, T/C:
>  <compound>
NS(=O)(=O)OCC1CC(n2ccc3c(NC4CCc5ccccc54)ncnc32)CC1O (stereo not drawn) + Cc1ccccc1N=Nc1ccc(NC(=O)c2ccnn2C)c(C)c1

>  <target of assay>
SW1271 complex spheroids with HUVEC/MSC, growth, % test/control

>  <test readout>
viability, T/C

>  <measurement unit>
%

>  <recorded value>
95.9

$$$$
>  <compound>
Nc1ccn(C2OC(CO)C(O)C2(F)F)c(=O)n1 (stereo not drawn) + Cc1ccccc1N=Nc1ccc(NC(=O)c2ccnn2C)c(C)c1

>  <target of assay>
SW1271 complex spheroids with HUVEC/MSC, growth, % test/control

>  <test readout>
viability, T/C

>  <measurement unit>
%

>  <recorded value>
39.5

$$$$

Consider the additional compound presented here.
Qu. Can you share its viability, T/C? I mean this compound: CC1(C)CCC(CN2CCN(c3ccc(C(=O)NS(=O)(=O)c4ccc(NCC5CCOCC5)c([N+](=O)[O-])c4)c(Oc4cnc5[nH]ccc5c4)c3)CC2)=C(c2ccc(Cl)cc2)C1 + CC(CO)NC(=O)c1cc(-c2ccc(Cl)cc2)nn(-c2cnn(C)c2)c1=O
Ans. 84.2

====

- Tested on: SW1271 complex spheroids with HUVEC/MSC, growth, % test/control
- procedure summary: Anticancer human tumor SW1271 cell line growth inhibition [AhR];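 also: spheroids exposed to agents for 7 days before readout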
- measurement conditions: second compound 10 µM; first compound 3.16 µM; active compounds read low
test readout: viability, T/C (%)
Please reply with the bare figure in % and do not write the unit itself.

>  <molecule>
CC1COCCN1c1cc(C2(S(C)(=N)=O)CC2)nc(-c2ccnc3[nH]ccc23)n1 (configuration not stated) + Cc1cncc(-c2nc(NCCc3c[nH]c4ccccc34)c3ncn(C(C)C)c3n2)c1

>  <viability, T/C / %>
43.3

$$$$
>  <molecule>
NS(=O)(=O)OCC1CC(n2ccc3c(NC4CCc5ccccc54)ncnc32)CC1O (configuration not stated) + Cc1ccccc1N=Nc1ccc(NC(=O)c2ccnn2C)c(C)c1

>  <viability, T/C / %>
77.4

$$$$
>  <molecule>
Nc1ccn(C2OC(CO)C(O)C2(F)F)c(=O)n1 (configuration not stated) + CC(CO)NC(=O)c1cc(-c2ccc(Cl)cc2)nn(-c2cnn(C)c2)c1=O

>  <viability, T/C / %>
54.5

$$$$
>  <molecule>
Nc1ccccc1NC(=O)c1ccc(CNC(=O)OCc2cccnc2)cc1 + CC(CO)NC(=O)c1cc(-c2ccc(Cl)cc2)nn(-c2cnn(C)c2)c1=O

>  <viability, T/C / %>
19

$$$$
>  <molecule>
COc1ccc([C@@H](O)c2cc(-c3ncnc4cc(N5CCOCC5)ccc34)c(F)cc2Cl)nn1 + CC(CO)NC(=O)c1cc(-c2ccc(Cl)cc2)nn(-c2cnn(C)c2)c1=O

>  <viability, T/C / %>
38

$$$$

Qu. Can you share its viability, T/C? I mean this molecule: O=C(c1cc(Cc2n[nH]c(=O)c3ccccc23)ccc1F)N1CCN(C(=O)C2CC2)CC1 + Cc1cncc(-c2nc(NCCc3c[nH]c4ccccc34)c3ncn(C(C)C)c3n2)c1
Ans. 44.9

Qu. Can you share its viability, T/C? I mean this molecule: COc1cc(C2c3cc4c(cc3C(OC3OC5COC(C)OC5C(O)C3O)C3COC(=O)C23)OCO4)cc(OC)c1O (configuration not stated) + Cc1cncc(-c2nc(NCCc3c[nH]c4ccccc34)c3ncn(C(C)C)c3n2)c1
Ans. 32.6

Qu. Can you share its viability, T/C? I mean this molecule: O=C(c1cc(Cc2n[nH]c(=O)c3ccccc23)ccc1F)N1CCN(C(=O)C2CC2)CC1 + Cc1ccccc1N=Nc1ccc(NC(=O)c2ccnn2C)c(C)c1
Ans. 89.5
